assay: Evaluation of pharmacokinetic parameters for Ticagrelor following oral administration of Ticagrelor tablets (BRILINTA); assay type: ADME, organism-based; details: human, in vivo, dosed compound id 12, dosed compound name TICAGRELOR, tissue Plasma
recordedMetric: bioavailability (%)
Quick note: give the figure in %, leave out the unit.

// bioavailability lookup, compound = CCCSc1nc(N[C@@H]2C[C@H]2c2ccc(F)c(F)c2)c2nnn([C@@H]3C[C@H](OCCO)[C@@H](O)[C@H]3O)c2n1 , result: 36

* * *

assay: Evaluation of pharmacokinetic parameters for Ticagrelor following oral administration of Ticagrelor tablets (BRILINTA); assay type: ADME, organism-based; settings: human, in vivo, dosed compound id 12, dosed compound name TICAGRELOR, tissue Plasma
recordedMetric: half-life

So for CCCSc1nc(N[C@@H]2C[C@H]2c2ccc(F)c(F)c2)c2nnn([C@@H]3C[C@H](OCCO)[C@@H](O)[C@H]3O)c2n1 , the logged half-life turned out to be 7 h
